The following compounds are shown together with reported IC50 values.
Target: Endothelin receptor type B (Homo sapiens)
Sequence (P24530 whole entry): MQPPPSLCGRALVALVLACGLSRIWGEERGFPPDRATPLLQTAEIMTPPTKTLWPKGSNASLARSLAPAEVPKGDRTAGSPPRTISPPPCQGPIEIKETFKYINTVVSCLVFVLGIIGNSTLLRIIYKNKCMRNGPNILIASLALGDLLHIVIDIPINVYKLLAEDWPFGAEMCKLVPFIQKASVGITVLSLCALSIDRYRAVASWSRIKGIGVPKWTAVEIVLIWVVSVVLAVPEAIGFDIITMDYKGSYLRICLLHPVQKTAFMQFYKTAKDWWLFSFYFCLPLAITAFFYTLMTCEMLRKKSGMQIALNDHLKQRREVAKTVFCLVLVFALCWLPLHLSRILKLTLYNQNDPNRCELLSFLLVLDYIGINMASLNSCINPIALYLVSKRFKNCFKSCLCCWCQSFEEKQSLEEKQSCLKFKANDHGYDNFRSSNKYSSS
Assay: Tested for antagonistic activity against Endothelin B receptor in human (CHO expressed).
Type: functional
Numbers only; they are read as µM.

COc1ccc(C2(O)OC(=O)C(c3ccc4c(c3)OCO4)=C2Cc2ccccc2)cc1 (stereo not drawn)
4.55

Now take the following compound into account.
input: Which measured IC50 value corresponds to O=C1OC(O)(c2ccccc2)C(Cc2ccccc2)=C1c1ccc2c(c1)OCO2 (stereo not drawn) ?
output: 30

----------
The following compounds are shown together with reported IC50 values.
Target: UniProtKB P21451
Sequence (P21451 whole entry): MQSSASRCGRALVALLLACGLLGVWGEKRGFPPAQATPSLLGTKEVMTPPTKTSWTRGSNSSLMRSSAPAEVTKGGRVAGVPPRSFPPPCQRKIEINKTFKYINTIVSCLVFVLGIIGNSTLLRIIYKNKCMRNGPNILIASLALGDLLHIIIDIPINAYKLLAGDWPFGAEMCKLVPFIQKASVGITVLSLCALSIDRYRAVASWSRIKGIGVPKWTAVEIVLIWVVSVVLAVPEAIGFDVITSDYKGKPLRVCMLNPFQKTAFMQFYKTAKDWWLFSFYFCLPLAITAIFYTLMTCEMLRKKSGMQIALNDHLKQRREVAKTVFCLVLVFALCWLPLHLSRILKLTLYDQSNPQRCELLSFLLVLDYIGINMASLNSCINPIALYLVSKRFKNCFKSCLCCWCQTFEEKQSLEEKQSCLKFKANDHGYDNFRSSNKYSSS
Experiment: Tested for antagonistic activity against Endothelin B receptor in the rat cerebellum.

O=C1OC(O)(c2ccccc2)C(Cc2ccccc2)=C1c1ccc2c(c1)OCO2 (stereo not given)
22 µM

input: Find the measured IC50: item COc1ccc(C2(O)OC(=O)C(c3ccc4c(c3)OCO4)=C2Cc2ccccc2)cc1 (stereo not given) , target or system UniProtKB P21451.
output: 0.5 µM

input: Find the measured IC50: item COc1ccc(C2(O)OC(=O)C(c3ccc4c(c3)OCO4)=C2Cc2ccc(C)cc2)cc1 (stereo not given) , target or system UniProtKB P21451.
output: 4.5 µM

input: Find the measured IC50: item O=C1OC(O)(c2ccc(Cl)cc2)C(Cc2ccccc2)=C1c1ccc2c(c1)OCO2 (stereo not given) , target or system UniProtKB P21451.
output: 5.2 µM

input: Find the measured IC50: item Cc1ccc(C2(O)OC(=O)C(c3ccc4c(c3)OCO4)=C2Cc2ccccc2)cc1 (stereo not given) , target or system UniProtKB P21451.
output: 4.5 µM

----------
Molecular target: Endothelin-1 receptor (Homo sapiens, UniProt P25101)
Sequence (P25101 whole entry): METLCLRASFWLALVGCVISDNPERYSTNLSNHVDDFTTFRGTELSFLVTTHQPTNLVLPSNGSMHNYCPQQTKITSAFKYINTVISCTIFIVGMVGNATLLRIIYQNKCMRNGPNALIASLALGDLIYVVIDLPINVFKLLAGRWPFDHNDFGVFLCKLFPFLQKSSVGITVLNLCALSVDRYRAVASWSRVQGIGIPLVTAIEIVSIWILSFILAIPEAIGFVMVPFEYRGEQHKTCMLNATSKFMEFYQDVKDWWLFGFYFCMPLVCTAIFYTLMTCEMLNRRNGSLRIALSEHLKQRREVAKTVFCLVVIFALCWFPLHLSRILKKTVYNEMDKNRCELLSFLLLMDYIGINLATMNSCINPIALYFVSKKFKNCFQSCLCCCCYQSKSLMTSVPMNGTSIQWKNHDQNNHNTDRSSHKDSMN
Assay: Antagonistic activity against human Endothelin A receptor expressed in LtK
pIC50: −log10 of the molar value.
Answer Condition not met if pIC50 is under 8, and Condition met if it is 8 or more.

Here's what some known entries look like.
COc1ccc(C2(O)OC(=O)C(c3ccc4c(c3)OCO4)=C2Cc2ccc(OC)c(C)c2)cc1 (stereo not given)
Condition met
COc1ccc(C2(O)OC(=O)C(c3ccc4c(c3)OCO4)=C2Cc2ccc(C)cc2)cc1 (stereo not given)
Condition not met
COc1ccc(C(=O)/C(Cc2cc(OC)c(OC)c(OC)c2)=C(\C(=O)O)c2ccc3c(c2)OCO3)cc1 [PD-156707 SODIUM]
Condition met

Next item in the queue.
input: Test whether the molecule COc1ccc(CC2=C(c3ccc(Cl)c(Cl)c3)C(=O)OC2(O)c2ccc(OC)cc2)cc1 (stereo not given) records pIC50 of 8 or higher.
output: Condition not met
